Where do these numbers come from? They come from the supplement of paper PMC7125110.

B1: glmS ribozyme (parent)
chain: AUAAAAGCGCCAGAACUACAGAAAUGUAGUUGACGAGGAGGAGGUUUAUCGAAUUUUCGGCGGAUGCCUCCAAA

- Variants of: B1
- TEST_SUMMARY: self-cleavage kobs at 40 uM GlcN6P; higher = faster cleavage; RNA array
- EXPERIMENTAL_PARAMETERS: with glucosamine-6-phosphate
Variants at the floor of the assay were thinned out.
Record form. Attribute: self-cleavage kobs at 40 uM GlcN6P. Fill in for each entry.

Examples from the recorded data:
SEQUENCE	EXPERIMENTAL_VALUE
AUAAAAGUGCCAGAACUACAGAAAUGUAGUUGACGAGGAGGAGGUUUAUCCAAUUUUCGGCGGAUGCCUCCAAA	< 1e-05 s⁻¹
AUAAAAGCGCCAGAACUACAGAAAUGUAGUUGACGAGGAGGAGGUGUAUCUAAUUUACGGCGGAUGCCUGCAAA	4.37e-05 s⁻¹
AUAAAAGCGGCAGAACUACAGAAAUGUAGUUGACGAGGAGGAGGUUUAUCGUAUUUUCCGCGGAUGCCUCCAAA	< 1e-05 s⁻¹

Batch of 4 variants: report self-cleavage kobs at 40 uM GlcN6P for each.
1. AUAAAAGCGCCAGAACUACAGAAAUGUAGUUGACGAGUAGGAGGUUGAUCGAAUUUUCGGCGGAUGCCUCCAAA
2. AUAAAAGGGCCAGAACUACAGAAAUGUAGUUGACGAGGAGGAGGUUUAUUGAAUUUUCGGCGGAUGCCUCCAAA
3. AUAAAAGCGCUAGUACUACAGAAAUGUAGUUGACGAGGAGGAUGUUUAUCGAAAUUUCGGCGAAUGCCUCCAAA
4. AUAAAAGCGCCAGAUCUACAGAAAUGUAGUUGACGAGGAGGAGGUUUAUCGAAUUUUCGGCGGAUACCUCCAAA

1. < 1e-05 s⁻¹
2. < 1e-05 s⁻¹
3. < 1e-05 s⁻¹
4. 4.82e-05 s⁻¹
